# assaySummary: Ratio of drug level in ICR mouse brain to plasma at 10 mg/kg, po measured after 0.5 hrs by LC-MS/MS analysis
# Format: ADME, organism-based
# conditionDescription: read-out: BPR
Reported Kp at 0.5 h by item:
Output: the number by itself.

// worked examples, Kp at 0.5 h included
CCCN(CCCCNC(=O)c1ccc(-c2ccccn2)cc1)C[C@@H]1C[C@H]1c1cccc(Cl)c1Cl.Cl = 0.23
CCCN(CCCCNC(=O)c1ccc(-c2ccccn2)cc1)C[C@@H]1C[C@H]1c1cc(F)ccc1OC.Cl = 0.49
CCCN(CCCCNC(=O)c1ccc2ccccc2c1)C[C@@H]1C[C@H]1c1cccc(Cl)c1Cl.Cl = 0.82

// next item, Kp at 0.5 h requested
# input Record request: Kp at 0.5 h value, item CCCN(CCCCNC(=O)c1cc2ccccc2[nH]1)C[C@@H]1C[C@H]1c1cccc(Cl)c1Cl.Cl
# output 1.45

* * *

# testedSystem: D(1A) dopamine receptor (Homo sapiens, UniProt P21728)
# Sequence (P21728 whole entry): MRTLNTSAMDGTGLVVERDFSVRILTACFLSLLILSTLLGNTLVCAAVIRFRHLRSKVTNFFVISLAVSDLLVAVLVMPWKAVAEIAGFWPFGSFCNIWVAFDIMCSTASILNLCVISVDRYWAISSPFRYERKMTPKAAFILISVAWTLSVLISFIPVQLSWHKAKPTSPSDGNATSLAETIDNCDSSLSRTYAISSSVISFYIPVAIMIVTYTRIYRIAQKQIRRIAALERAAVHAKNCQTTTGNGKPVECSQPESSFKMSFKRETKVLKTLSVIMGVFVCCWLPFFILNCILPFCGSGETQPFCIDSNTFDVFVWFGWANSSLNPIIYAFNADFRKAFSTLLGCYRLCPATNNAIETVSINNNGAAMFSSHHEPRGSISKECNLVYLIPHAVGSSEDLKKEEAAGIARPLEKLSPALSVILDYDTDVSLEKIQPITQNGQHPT
# assaySummary: Displacement of [3H]-SCH23390 from recombinant human D1 receptor transiently expressed in HEKT cell membranes measured after 90 mins by microbeta scintillation counting method
pKi: −log10 of the molar value.
Label scheme for pKi: lower than 6 is F, 6 and above is T.

Observe how each entry below is paired with its result.
CCCN(CCCCNC(=O)c1ccc(-c2ccccn2)cc1)C[C@H]1C[C@@H]1c1cccc(Cl)c1Cl.Cl = F
CCCN(CCCSc1nnc(-c2ccccc2)n1C)CC1CC1c1cc(F)ccc1OC (stereo unspecified) = F
COc1ccc(Cl)cc1C1CC1CN(CCCSc1nnc(-c2ccccc2)n1C)CC1CC1 (stereo unspecified) = T
Cn1c(SCCCNCC2CC2c2cc(F)ccc2OCCF)nnc1-c1ccccc1 (stereo unspecified) = T
CCCN(CCCCNC(=O)c1ccc(-c2ccccn2)cc1)C[C@@H]1C[C@H]1c1cc(F)ccc1OC.Cl = F
CCCN(CCCCNC(=O)c1ccc2ccccc2c1)CC1CC1c1ccc(Cl)cc1 (stereo unspecified) = T
CCN(CCCCNC(=O)c1ccc2ccccc2c1)CC1CC1c1cc(Cl)ccc1OC (stereo unspecified) = F
CCCN(CCCCNC(=O)c1ccc(-c2ccccn2)cc1)CC1CC1c1ccc(F)cc1 (stereo unspecified) = F
COc1ccc(F)cc1C1CC1CNCCCSc1nnc(-c2ccccc2)n1C (stereo unspecified) = T

Shift focus to the following entry.
# input Check if pKi >= 6 (inclusive). Item: CCN(CCCSc1nnc(-c2ccccc2)n1C)CC1CC1c1cc(F)ccc1OC (stereo unspecified)
# output F

* * *

# assaySummary: Tmax in ICR mouse at 10 mg/kg, po by LC-MS/MS analysis
# Format: ADME, organism-based
# conditionDescription: in vivo
readoutKind: Tmax (min)
Entry rule: numbers only, all in min.

// worked examples, Tmax included
CCCN(CCCCNC(=O)c1ccc2ccccc2c1)C[C@@H]1C[C@H]1c1cccc(Cl)c1Cl.Cl = 15
CCCN(CCCCNC(=O)c1ccc(-c2ccccn2)cc1)C[C@@H]1C[C@H]1c1cc(F)ccc1OC.Cl = 15
CCCN(CCCCNC(=O)c1cc2ccccc2[nH]1)C[C@@H]1C[C@H]1c1cccc(Cl)c1Cl.Cl = 60

// next item, Tmax requested
# input Record request: Tmax value, item CCCN(CCCCNC(=O)c1ccc(-c2ccccn2)cc1)C[C@@H]1C[C@H]1c1cccc(Cl)c1Cl.Cl
# output 30
